- Target Desc: c-Met (Homo sapiens)
- Construct: Kinases are expressed as either kinase domains or full length constructs; made in house
- Sequence (P08581 25-1390): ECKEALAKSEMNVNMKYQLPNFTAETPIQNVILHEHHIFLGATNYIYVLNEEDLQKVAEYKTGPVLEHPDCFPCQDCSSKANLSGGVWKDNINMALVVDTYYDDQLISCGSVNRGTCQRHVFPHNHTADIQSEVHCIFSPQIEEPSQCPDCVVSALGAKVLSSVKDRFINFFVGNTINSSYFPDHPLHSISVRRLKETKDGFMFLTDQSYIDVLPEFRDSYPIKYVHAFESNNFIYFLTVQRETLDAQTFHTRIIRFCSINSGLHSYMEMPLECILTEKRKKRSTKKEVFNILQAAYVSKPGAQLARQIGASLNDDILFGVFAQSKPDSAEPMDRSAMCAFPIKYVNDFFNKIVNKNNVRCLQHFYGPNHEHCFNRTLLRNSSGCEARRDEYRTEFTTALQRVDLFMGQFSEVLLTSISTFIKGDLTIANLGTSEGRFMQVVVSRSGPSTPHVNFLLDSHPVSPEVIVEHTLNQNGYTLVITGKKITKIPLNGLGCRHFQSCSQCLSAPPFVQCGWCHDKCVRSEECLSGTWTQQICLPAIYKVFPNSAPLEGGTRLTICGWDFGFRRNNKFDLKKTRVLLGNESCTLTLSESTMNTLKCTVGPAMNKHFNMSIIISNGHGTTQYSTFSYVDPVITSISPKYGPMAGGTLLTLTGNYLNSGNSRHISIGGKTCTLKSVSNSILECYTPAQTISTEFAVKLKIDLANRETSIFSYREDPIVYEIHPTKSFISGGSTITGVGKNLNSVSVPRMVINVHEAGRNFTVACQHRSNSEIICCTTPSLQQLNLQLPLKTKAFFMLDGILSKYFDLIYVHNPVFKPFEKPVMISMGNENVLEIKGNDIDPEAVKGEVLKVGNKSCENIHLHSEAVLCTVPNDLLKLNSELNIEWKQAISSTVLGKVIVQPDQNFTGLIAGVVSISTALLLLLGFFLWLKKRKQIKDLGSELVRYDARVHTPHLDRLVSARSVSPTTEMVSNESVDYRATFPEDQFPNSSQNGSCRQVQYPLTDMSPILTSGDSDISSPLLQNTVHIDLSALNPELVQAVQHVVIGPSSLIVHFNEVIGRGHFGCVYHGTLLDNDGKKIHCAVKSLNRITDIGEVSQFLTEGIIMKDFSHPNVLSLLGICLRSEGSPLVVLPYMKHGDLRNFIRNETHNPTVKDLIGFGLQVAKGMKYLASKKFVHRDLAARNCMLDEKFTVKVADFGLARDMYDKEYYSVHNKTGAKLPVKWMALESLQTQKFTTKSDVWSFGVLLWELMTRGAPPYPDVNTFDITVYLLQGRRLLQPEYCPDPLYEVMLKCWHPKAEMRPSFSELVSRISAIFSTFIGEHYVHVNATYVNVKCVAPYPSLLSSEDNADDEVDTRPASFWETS
- Procedure Summary: Kinase inhibition assay (33P transfer), c-Met
- Assay type: biochemical
- Test Conditions: Table 2, class symbols A-E; read-out: Met-1
pIC50: −log10 of the molar value.
Here the recorded pIC50 is given for each entry.

Below, each entry is followed by its recorded pIC50 result.
                                   compound  meas_value
0  COc1ccc(Nc2ncnc(N(C)c3ccc(Cl)cc3)n2)cc1OC [Compound 795]      > 5.97
1  CNS(=O)(=O)Cc1ccc(Nc2ncnc(Nc3cc(-c4ccc(C(=O)OC)cc4)n[nH]3)n2)cc1 [Compound 883]      > 6.09
2  COc1cc(C)c(Nc2ncnc(Nc3cc(-c4ccc(C)cc4)n[nH]3)n2)cc1OC [Compound 1127]      > 6.02

Would you kindly look at the next entry?
Given CCOc1ccc(Nc2ncnc(Nc3cc(-c4ccc(C(=O)OC)cc4)n[nH]3)n2)cc1 [Compound 879] , respond with its pIC50. 5.25 to 6.03
